Target: T1, 4H452-AA
T1 chain: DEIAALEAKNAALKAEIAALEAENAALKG
Assay: two-hybrid library CCmax;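 further: natural log of median RNA to DNA barcode read ratio; higher means stronger binding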
Conditions: mean of both orientations
assay_metric: interaction score

• DKIAALEAKIAALEAKIAALEAKNAALEG [4H2343-AA] = -1.86
• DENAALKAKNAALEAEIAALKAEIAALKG [4H1930-AA] = -1.51
• DEIAALEAKNAALEAENAALEAKIAALKG [4H406-AA] = -0.548
• DKNAALEAKIAALKAKIAALKAKIAALKG [4H3438-AA] = -0.716
• DKIAALKAKNAALKAEIAALEAKNAALEG [4H3015-AA] = -1.36
• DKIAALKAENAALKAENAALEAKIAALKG [4H2774-AA] = -0.902
• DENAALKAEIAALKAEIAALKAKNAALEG [4H1615-AA] = -1.96
